- Test system: U2OS
- PROTOCOL TEXT: Multiplex assay against U2OS
- Type: toxicity, cell-based
- ASSAY CONTEXT: human, 48 h, 10 µM, compound concentration 10 uM, replicate 1

[
  {
    "MOLECULE": "C=CCN1C[C@H](C(=O)N(CCCN(C)C)C(=O)NCC)C[C@@H]2c3cccc4[nH]cc(c34)C[C@H]21",
    "Population Normal (%)": "96%"
  },
  {
    "MOLECULE": "COc1ccc2c(c1OCc1ccccc1)C[C@@H](C(=O)O)N(C(=O)C(c1ccccc1)c1ccccc1)C2",
    "Population Normal (%)": "98%"
  },
  {
    "MOLECULE": "Cc1ccc(OCC(O)C(C)NC(C)C)c2c1CCC2.Cl (stereo not drawn)",
    "Population Normal (%)": "95%"
  }
]

* * *

Below, each entry is listed alongside its reported Total Cell Count.
- Tested on: HEK-293T
- PROTOCOL TEXT: Multiplex assay against HEK293T
- Format: toxicity, cell-based
- ASSAY CONTEXT: human, 48 h, 1 µM, compound concentration 1 uM, replicate 1
Non-standard residues stand in square brackets, D forms with d. Residues, ends and D or L forms follow the SMILES beside them.
MEASURED ENDPOINT: Total Cell Count

[
  {
    "MOLECULE": "Cc1cc(-c2ccc3c(c2)CC[C@H]3N2CC3(CCN(C(=O)Cc4cn5cc(C)sc5n4)CC3)C2)ncn1",
    "VALUE": 873
  },
  {
    "MOLECULE": "Cc1nn(C)c2nc(NNC(=O)Nc3cc(Cl)nc(Cl)c3)cc(C(C)C)c12",
    "VALUE": 912
  },
  {
    "MOLECULE": "CC(C)C[C@@H]1NC(=O)[C@@H](C(C)C)NC(=O)[C@@H]2CCCN2C(=O)[C@@H](CC(=O)O)NC(=O)[C@@H](Cc2c[nH]c3ccccc23)NC1=O [BQ-123] (cyclo(L[dW][dD]P[dV]))",
    "VALUE": 719
  },
  {
    "MOLECULE": "OCCCNc1cc(-c2ccnc(Nc3cccc(Cl)c3)n2)ccn1",
    "VALUE": 232
  },
  {
    "MOLECULE": "COc1cc2nc(N3CCN(C(=O)COc4c(OC)cccc4C(C)C)CC3)nc(N)c2cc1OC.Cl.Cl",
    "VALUE": 930
  },
  {
    "MOLECULE": "COc1cc(OC2CCN(C(C)=O)CC2)ccc1C(=O)N1CCC(N2C(=O)OCc3ccccc32)CC1",
    "VALUE": 902
  },
  {
    "MOLECULE": "COc1c(Nc2ccc(S(C)(=O)=O)nc2C)ncnc1OC1CCN(C(=O)OC(C)C)CC1",
    "VALUE": 924
  },
  {
    "MOLECULE": "Nc1nc(CC(=O)Nc2ccc(CCNC[C@H](O)c3ccccc3)cc2)cs1",
    "VALUE": 1141
  },
  {
    "MOLECULE": "CN1CCN(c2ccc(Nc3c4ccccc4nc4ccccc34)cc2)CC1.Cl.Cl.O",
    "VALUE": 581
  },
  {
    "MOLECULE": "COC(c1ccccc1)(c1ccccc1)[C@H](Oc1nc(C)cc(C)n1)C(=O)O",
    "VALUE": 600
  },
  {
    "MOLECULE": "CN1CCC(C(=O)c2cccc(NC(=O)c3c(F)cc(F)cc3F)n2)CC1",
    "VALUE": 884
  },
  {
    "MOLECULE": "O=C(NCCNCC(O)COc1ccc(O)cc1)N1CCOCC1.O=C(NCCNCC(O)COc1ccc(O)cc1)N1CCOCC1.O=C(O)/C=C/C(=O)O (stereo not drawn) [XAMOTEROL FUMARATE]",
    "VALUE": 918
  },
  {
    "MOLECULE": "COc1ccc2c(c1OCc1ccccc1)C[C@@H](C(=O)O)N(C(=O)C(c1ccccc1)c1ccccc1)C2",
    "VALUE": 1083
  }
]

* * *

- Tested on: U2OS
- PROTOCOL TEXT: Multiplex assay against U2OS
- Type: toxicity, cell-based
- ASSAY CONTEXT: human, 12 h, 1 µM, compound concentration 1 uM, replicate 2
Below, each entry is listed alongside its reported Population Membrane Permeable-Phenotype (%).
MEASURED ENDPOINT: Population Membrane Permeable-Phenotype (%)

[
  {
    "COMPOUND": "CCCCCCNC(=O)Nc1ccc(S(=O)(=O)Nc2ccc(CCNC[C@H](O)COc3ccc(O)cc3)cc2)cc1 [L-755507]",
    "VALUE": 10
  },
  {
    "COMPOUND": "S=C(NCCCc1c[nH]cn1)NCCCN(Cc1ccc(Cl)c(Cl)c1)c1ccc(Br)cn1",
    "VALUE": 6
  },
  {
    "COMPOUND": "OCCCNc1cc(-c2ccnc(Nc3cccc(Cl)c3)n2)ccn1",
    "VALUE": 10
  },
  {
    "COMPOUND": "COc1ccc2c(c1OCc1ccccc1)C[C@@H](C(=O)O)N(C(=O)C(c1ccccc1)c1ccccc1)C2 [OLODANRIGAN]",
    "VALUE": 6
  },
  {
    "COMPOUND": "COc1c(Nc2ccc(S(C)(=O)=O)nc2C)ncnc1OC1CCN(C(=O)OC(C)C)CC1 [ADP-597]",
    "VALUE": 11
  }
]

* * *

- Test system: U2OS
- PROTOCOL TEXT: Multiplex assay against U2OS
- Format: toxicity, cell-based
- ASSAY CONTEXT: human, 12 h, 1 µM, compound concentration 1 uM, replicate 2
Below, each entry is listed alongside its reported Population Mitochondria Different-Phenotype (%).
MEASURED ENDPOINT: Population Mitochondria Different-Phenotype (%)

[
  {
    "MOLECULE": "COCCn1c(C)c(C)s/c1=N\\C(=O)C1C(C)(C)C1(C)C",
    "SYSTEM": "U2OS",
    "UNITS LABEL": "%",
    "VALUE": 3
  },
  {
    "MOLECULE": "Cc1nn(C)c2nc(NNC(=O)Nc3cc(Cl)nc(Cl)c3)cc(C(C)C)c12",
    "SYSTEM": "U2OS",
    "UNITS LABEL": "%",
    "VALUE": 7
  },
  {
    "MOLECULE": "CN1CCN2c3ccccc3Cc3ccccc3C2C1.Cl (stereo unspecified) [MIANSERIN HYDROCHLORIDE]",
    "SYSTEM": "U2OS",
    "UNITS LABEL": "%",
    "VALUE": 3
  },
  {
    "MOLECULE": "COC(c1ccccc1)(c1ccccc1)[C@H](Oc1nc(C)cc(C)n1)C(=O)O",
    "SYSTEM": "U2OS",
    "UNITS LABEL": "%",
    "VALUE": 3
  },
  {
    "MOLECULE": "O=C(O)CCC/C=C\\CC1C(O)CC(O)C1/C=C/C(O)COc1cccc(Cl)c1 (stereo unspecified)",
    "SYSTEM": "U2OS",
    "UNITS LABEL": "%",
    "VALUE": 3
  },
  {
    "MOLECULE": "COCCCN1CCC(NC(=O)c2cc(Cl)c(N)c3c2OCC3)CC1 [PRUCALOPRIDE]",
    "SYSTEM": "U2OS",
    "UNITS LABEL": "%",
    "VALUE": 7
  }
]

* * *

- Tested on: Fibroblast
- PROTOCOL TEXT: Multiplex assay against human fibroblast
- Format: toxicity, cell-based
- ASSAY CONTEXT: 12 h, 1 µM, compound concentration 1 uM, replicate 2

[
  {
    "COMPOUND": "CC(C)(C)c1ccc(CSc2cnn(C(C)(C)C)c(=O)c2Cl)cc1",
    "UNITS LABEL": "%",
    "Population Pyknosed Nuclei (%)": 25
  },
  {
    "COMPOUND": "C=CCN1C[C@H](C(=O)N(CCCN(C)C)C(=O)NCC)C[C@@H]2c3cccc4[nH]cc(c34)C[C@H]21",
    "UNITS LABEL": "%",
    "Population Pyknosed Nuclei (%)": 33
  },
  {
    "COMPOUND": "N[C@](CC1c2ccccc2Oc2ccccc21)(C(=O)O)[C@H]1C[C@@H]1C(=O)O",
    "UNITS LABEL": "%",
    "Population Pyknosed Nuclei (%)": 21
  },
  {
    "COMPOUND": "O=C(O)CCC/C=C\\CC1C(O)CC(O)C1/C=C/C(O)COc1cccc(Cl)c1 (stereo unspecified)",
    "UNITS LABEL": "%",
    "Population Pyknosed Nuclei (%)": 25
  },
  {
    "COMPOUND": "Nc1nc(-c2ccco2)c2cnn(Cc3ccccc3F)c2n1",
    "UNITS LABEL": "%",
    "Population Pyknosed Nuclei (%)": 17
  },
  {
    "COMPOUND": "CSc1nc(NC2CCCC2)c([N+](=O)[O-])c(NC2CCCC2)n1",
    "UNITS LABEL": "%",
    "Population Pyknosed Nuclei (%)": 25
  },
  {
    "COMPOUND": "Cc1cc(-c2ccc3c(c2)CC[C@H]3N2CC3(CCN(C(=O)Cc4cn5cc(C)sc5n4)CC3)C2)ncn1",
    "UNITS LABEL": "%",
    "Population Pyknosed Nuclei (%)": 34
  },
  {
    "COMPOUND": "Cn1cc(C(=O)OCC2CCN(CCNS(C)(=O)=O)CC2)c2ccccc21",
    "UNITS LABEL": "%",
    "Population Pyknosed Nuclei (%)": 32
  },
  {
    "COMPOUND": "COc1cc2nc(N3CCN(C(=O)c4ccco4)CC3)nc(N)c2cc1OC.Cl [PRAZOSIN HYDROCHLORIDE]",
    "UNITS LABEL": "%",
    "Population Pyknosed Nuclei (%)": 27
  },
  {
    "COMPOUND": "CCn1c(-c2nc3cc(C(=O)N4CCCC(N)C4)ccc3n2C)cc2ccccc21.Cl (stereo unspecified)",
    "UNITS LABEL": "%",
    "Population Pyknosed Nuclei (%)": 23
  },
  {
    "COMPOUND": "CN(C)C/C=C/C(=O)Nc1ccc(C(=O)N2CCCC(Nc3ncc(Cl)c(-c4c[nH]c5ccccc45)n3)C2)cc1 (stereo unspecified)",
    "UNITS LABEL": "%",
    "Population Pyknosed Nuclei (%)": 25
  }
]

Taken from ChEMBL document CHEMBL5058577.
